This collection of values is drawn from paper PMC9482650.

system-tested: T1, SNTG1, Q9NSN8
T1 sequence (Q9NSN8 52-150, limits assumed, looked up): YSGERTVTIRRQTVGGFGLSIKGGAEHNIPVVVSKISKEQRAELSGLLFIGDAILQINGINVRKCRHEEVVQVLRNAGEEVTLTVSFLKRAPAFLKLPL
test-protocol: holdup assay
Parameters: key: below the threshold = too weak to quantify, mostly under pKd 3.1 to 4
assay-context: plain residues with an end cap or a label only (N-terminal biotin on a linker: ado-ado)
quantity-kind: pKd

| binder | reported-result |
| --- | --- |
| SQPLLVHDDV [KIT, P10721] | below the threshold |
| KPDKQEEFYA [SDC3, O75056] | below the threshold |
| HDDYFYHDEL [RCN2, Q14257] | below the threshold |
| QLGSPTADLA [SIPA1, Q96FS4] | below the threshold |
| SRPHTNETSL [MCC, P23508] | 3.93 |

## Task Item NNMAFETTHF [SLC5A12, Q1EHB4] : provide pKd
## Result below the threshold

## Task Item ADEMICITTL [CACNA1D, Q01668] : provide pKd
## Result 4.32

## Task Item SSSVNVSSNL [CXCR1, P25024] : provide pKd
## Result below the threshold

## Task Item QLKSGRDSTV [TMEM178A, Q8NBL3] : provide pKd
## Result 3.81
